tested on: Vero E6 cells; conditions: cytotoxicity counter-assay, Vero E6 cells without virus
Classification field: Fulfilled = % Cytotox at or over 20%; Not fulfilled = % Cytotox under 20%.

Dear colleague, could you confirm whether `COc1ccc(S(=O)(=O)N(CCO)c2ccccc2CN(C)C/C=C/c2ccc(Cl)cc2)cc1` has % Cytotox at or above 20%? Fulfilled

Dear colleague, could you confirm whether CCCCOC(=O)c1ccnc2cc(C(OCCN3CCCCC3)c3ccccc3C)sc12 (centres unmarked) has % Cytotox at or above 20%? Fulfilled

Dear colleague, could you confirm whether `NC(=O)c1cccc(-c2cc(Nc3ccc(OC(F)(F)F)cc3)ncn2)c1` has % Cytotox at or above 20%? Not fulfilled

Dear colleague, could you confirm whether `COc1cccc([C@@H](C)NCCCc2ccccc2Cl)c1` has % Cytotox at or above 20%? Not fulfilled

Dear colleague, could you confirm whether CCc1ccccc1OC[C@@H](O)CN[C@H]1CCCc2ccccc21.Cl [SR 59230A hydrochloride] has % Cytotox at or above 20%? Not fulfilled

* * *

tested on: Vero E6 cells; conditions: read-out: Cytotox CC50; Vero E6 cells without virus, 72 h
measuredEndpoint: CC50 (µM)
Use µM as the unit, but write only the number.

Value wanted: CC50 (Vero E6 cells) of entry Cc1cccc(Nc2nc(-c3ccncc3)cs2)c1 [STF-62247, reference compound] 11.2

* * *

tested on: Vero E6 cells; conditions: cytotoxicity counter-assay, Vero E6 cells without virus
// assign class 1 if % Cytotox falls strictly below 20%, else class 0 (ties count as class 0)

Does this molecule meet the criterion % Cytotox < 20%? C[C@@H]1O[C@@H](O[C@@H]2[C@@H](O)[C@H](O[C@@H]3[C@@H](O)[C@@H](O)[C@H](O[C@H]4[C@H](OC(=O)[C@]56CCC(C)(C)C[C@H]5C5=CCC7[C@@]8(C)C[C@H](O)[C@H](O[C@@H]9O[C@@H](C)[C@H](O)[C@@H](O)[C@H]9O)[C@@](C)(CO)C8CC[C@@]7(C)[C@]5(C)C[C@H]6O)O[C@H](C)[C@H](O)[C@@H]4O)O[C@H]3C)OC[C@H]2O)[C@H](O)[C@H](O)[C@H]1O (some centres unmarked) class 0

Does this molecule meet the criterion % Cytotox < 20%? Cc1ccc(NC(=O)C(C)C)cc1C1CCN(Cc2ccc(Oc3ccc(F)c(F)c3)cc2)CC1.Cl [SNAP 94847 hydrochloride] class 0

Does this molecule meet the criterion % Cytotox < 20%? `Cc1nc(C)c(CN2CCN(C(c3ccc(F)cc3)c3ccc(F)cc3)CC2)nc1C` class 1

Does this molecule meet the criterion % Cytotox < 20%? `Cc1c(CCOc2ccc(C(=O)O)cc2)c2cc(Cl)ccc2n1C(c1ccccc1)c1ccccc1` class 0

Does this molecule meet the criterion % Cytotox < 20%? CCC(C)CNCC(=O)N1CCc2sccc2C1COc1cccc(C)c1 (centres unmarked) class 0

Does this molecule meet the criterion % Cytotox < 20%? `COc1ccccc1Nc1nc(-c2sc(NC(C)=O)nc2C)cs1` class 0

Does this molecule meet the criterion % Cytotox < 20%? `CN(C)S(=O)(=O)c1ccc(NC(=S)N2CCC(C(O)(c3ccccc3)c3ccccc3)CC2)cc1` class 1

Does this molecule meet the criterion % Cytotox < 20%? Cl.Cl.Fc1ccc(-c2nc(C3CCNCC3)sc2-c2ccnc(NC3CC3)n2)cc1 [DBM 1285 dihydrochloride] class 0

* * *

system: Vero E6 cells; conditions: cytotoxicity counter-assay, Vero E6 cells without virus
measuredEndpoint: % Cytotox (%)
Use % as the unit, but write only the number.

Recorded % Cytotox for `C/C=C(\C)C(=O)O[C@H]1C=C(CO)C(=O)[C@H](OC(C)=O)[C@H]1C(C)C` , please? 103.1

Recorded % Cytotox for COc1cccc(CCc2ccccc2OCC(CN(C)C)OC(=O)CCC(=O)O)c1.Cl (centres unmarked) [Sarpogrelate hydrochloride] , please? 21.2

Recorded % Cytotox for `O=C(CCn1cnc2onc(-c3ccc(F)cc3)c2c1=O)Nc1cccc(C(F)(F)F)c1` , please? 65.0

Recorded % Cytotox for `Cc1c(C(=O)Nc2cccc(C(F)(F)F)c2)cc(-c2ccccc2)n1CCCN1CCOCC1` , please? 45.7

Recorded % Cytotox for Nc1ncnc2c1c(-c1cccc(OCc3ccccc3)c1)cn2C1CC(CN2CCCC2)C1 (centres unmarked) , please? 106.8

Recorded % Cytotox for `O=C(NCCCN1CCN(c2ccccc2F)CC1)c1ccc2nc(Cc3ccccc3)oc2c1` , please? 25.5

Recorded % Cytotox for COc1ccccc1OCCNCC(O)COc1cccc2[nH]c3ccccc3c12.O=C(O)C(O)C(O)C(=O)O (centres unmarked) [Carvedilol tartrate] , please? 12.7

Recorded % Cytotox for `CC(C)CCC[C@@H](C)[C@H]1CC[C@H]2[C@@H]3CC=C4C[C@@H](OC(=O)NCCN(C)C)CC[C@]4(C)[C@H]3CC[C@]12C.Cl` , please? 37.0

* * *

I'd appreciate it if you could supply cytotoxicity at 72 h values for the items below.
test: in vitro; settings: African green monkey
Use % as the unit, but write only the number.

Recorded cytotoxicity at 72 h for `CC[C@H](CC#N)OC(=O)N[C@@H](C)c1cccc(NC(=O)Nc2ccc(-c3cnco3)c(OC)c2)c1` , please? 50.3

Recorded cytotoxicity at 72 h for `COc1c(-c2ccc3cc(NS(C)(=O)=O)ccc3c2)cc(-n2ccc(=O)[nH]c2=O)cc1C(C)(C)C` , please? 42.5

Recorded cytotoxicity at 72 h for `O=C(CCCN1CCC2(CC1)C(=O)NCN2c1ccccc1)c1ccc(F)cc1` , please? 30

Recorded cytotoxicity at 72 h for `CCc1ccc(N(CC(C)C)S(=O)(=O)c2ccc(OCC3CCOCC3)c(CO)c2)cc1` , please? 51.1

Recorded cytotoxicity at 72 h for `Oc1c(I)cc(Cl)c2cccnc12` , please? 62.2

Recorded cytotoxicity at 72 h for CC1CCCCN1CCCOC(=O)c1ccc(OC2CCCCC2)cc1 (centres unmarked) , please? 9.6

Recorded cytotoxicity at 72 h for `COc1ccc2c(c1)[C@]1(C[C@H]1c1ccc3c(/C=C/c4ccc(CN5C[C@@H](C)O[C@@H](C)C5)cc4)n[nH]c3c1)C(=O)N2` , please? 31.4

Recorded cytotoxicity at 72 h for `Oc1ccc(-c2nc(-c3ccncc3)c(-c3ccc(F)cc3)[nH]2)cc1` , please? 62.4

Recorded cytotoxicity at 72 h for CN1CCN(CCCN2c3ccccc3Sc3ccc(S(=O)(=O)N(C)C)cc32)CC1 [Thioproperazine dimethanesulfonate] , please? 19.6

Recorded cytotoxicity at 72 h for CC(=O)Oc1ccccc1C(=O)Nc1ncc([N+](=O)[O-])s1 [Nitazoxanide] , please? 54.7

Recorded cytotoxicity at 72 h for `Cc1cc(O)c2c(c1)O[C@@]1(C)CC[C@H]3C(C)(C)CCC[C@]34CO[C@@H]2[C@H]41` , please? 0

Recorded cytotoxicity at 72 h for O=c1[nH]c2ccccc2n1CCCN1CCN(C(c2ccccc2)c2ccccc2)CC1 [Oxatomide] , please? 31.3

Recorded cytotoxicity at 72 h for `O=c1c2ccccc2[se]n1-c1ccccc1` , please? 0

Recorded cytotoxicity at 72 h for CN1CCN(C(c2ccccc2)c2ccc(Cl)cc2)CC1 (centres unmarked) , please? 18

* * *

system: Vero E6 cells; settings: cytotoxicity counter-assay, Vero E6 cells without virus
measuredEndpoint: % Cytotox (%)
Use % as the unit, but write only the number.

Recorded % Cytotox for Cc1cc(N2CCN(C(=O)Oc3ccc(-c4ccccc4)cn3)CC2)c2ccccc2n1 [NCGC00386928] , please? 68.1

Recorded % Cytotox for C[C@H]1CC[C@@]2(OC1)O[C@H]1CC3[C@@H]4CC[C@@H]5C[C@@H](O[C@@H]6O[C@H](CO)[C@@H](O[C@@H]7O[C@H](CO[C@@H]8OC[C@@H](O)[C@H](O)[C@H]8O)[C@@H](O[C@@H]8O[C@H](CO)[C@H](O)[C@H](O)[C@H]8O)[C@H](O)[C@H]7O)[C@H](O)[C@H]6O)CC[C@]5(C)C4CC[C@]3(C)[C@H]1[C@@H]2C (stereo partly drawn) [NCGC00385658] , please? 78.8

Recorded % Cytotox for O=C(NCCCCN1CCN(c2cccc(Cl)c2Cl)CC1)c1cc2ccccc2s1 [FAUC-365] , please? 35.5

Recorded % Cytotox for C=C1Cc2c(Cl)cc3[nH]c4c5c3c2[C@@]2(O)[C@@H]1C[C@@H]2C(C)(C)O[C@H]5C1CC[C@@]2(O)[C@@]35O[C@@H]3[C@H]3OC(C)(C)[C@H]3O[C@H]5CC[C@]2(C)[C@@]41C (stereo partly drawn) [NCGC00380694] , please? 19.8

Recorded % Cytotox for CN(C)CC(=O)N1CCC(c2ccc(NC(=O)c3nc(C#N)c[nH]3)c(C3=CCCCC3)c2)CC1 [JNJ-28312141] , please? 60.9

Recorded % Cytotox for Cn1cc(-c2ccc(-c3cncc(Cl)c3N3CCC4(CCNC4=O)CC3)cc2)cn1 [CCT-251545] , please? 0.0

Recorded % Cytotox for COc1ccc(C(C)(C)C)cc1CN[C@H]1C2CCN(CC2)[C@H]1C(c1ccccc1)c1ccccc1 [Maropitant] , please? 108.2

Recorded % Cytotox for Cn1nnnc1Sc1ncnc2scc(-c3cccc(S(C)(=O)=O)c3)c12 [NCGC00182390] , please? 63.9

Recorded % Cytotox for CCCCCCCCCCCCCCCc1cccc(O)c1C(=O)O [Anacardic Acid] , please? 72.9

Recorded % Cytotox for CS(=O)(=O)O.Cc1ncc(NC(=O)c2ccc(CN3CCN(C)CC3)c(C(F)(F)F)c2)cc1Nc1nccc(-c2cccnc2)n1 [Flumatinib mesylate] , please? 11.1

Recorded % Cytotox for CO[C@@H]1[C@@H](O[C@@H]2O[C@H](C)[C@@H](O[C@H]3C[C@@](C)(O)[C@@H](O)[C@H](C)O3)[C@H](N(C)C)[C@H]2O)[C@@H](CC=O)C[C@@H](C)[C@@H](O[C@H]2CC[C@H](N(C)C)[C@@H](C)O2)/C=C/C=C/C[C@@H](C)OC(=O)C[C@H]1OC(C)=O [Spiramycin II] , please? 0.0

Recorded % Cytotox for CC1(C)CCC(C)(C)c2cc(C#Cc3ccc(C(=O)O)cc3)ccc21 [EC 23] , please? 74.0
